- System Name: UniProt:P28221
- Sequence (P28221 whole entry): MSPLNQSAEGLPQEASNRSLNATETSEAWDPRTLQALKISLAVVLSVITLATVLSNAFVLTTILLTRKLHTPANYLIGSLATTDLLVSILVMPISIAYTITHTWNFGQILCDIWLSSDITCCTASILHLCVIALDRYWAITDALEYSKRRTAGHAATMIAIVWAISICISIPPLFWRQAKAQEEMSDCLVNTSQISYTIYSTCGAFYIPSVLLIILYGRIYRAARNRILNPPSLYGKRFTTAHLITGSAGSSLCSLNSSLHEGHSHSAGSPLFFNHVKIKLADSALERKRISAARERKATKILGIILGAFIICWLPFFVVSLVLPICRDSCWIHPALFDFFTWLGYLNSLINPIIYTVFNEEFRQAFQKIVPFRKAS
- Method Notes: Intrinsic activity at human 5HT1D receptor expressed in CHO cells by [S35]GTPgammaS binding assay relative to serotonin
- Assay type: functional, cell-based
Attribute: Intrinsic activity
Respond numerically, and do not add a unit to the figure.

Worked examples, 3 molecules total:
Cc1ccc2c(N3CCN(CCc4ccc5c(c4)NC(=O)CO5)CC3)cc(F)cc2n1    0
Cc1cc2c(N3CCN(CCc4ccc5c(c4)NC(=O)CO5)CC3)cccc2[nH]1    0.4
CCN1C(=O)COc2ccc(CCN3CCN(c4cccc5nc(C)ccc45)CC3)cc21    0

The reported value for Cc1cc(N2CCN(CCc3ccc4c(c3)NC(=O)CO4)CC2)c2ccc(C)nc2c1 in terms of Intrinsic activity is 0.3
